- Test system: SVSP activity of viper venoms
- assay procedure: chromogenic SVSP assay, viper venoms overall
- Format: biochemical
- condition description: range across venoms; read-out: IC50s, inhibition of venom SVSP activity
- Experimental: SVSP activity was measured using a chromogenic substrate (S-2288, Cambridge Bioscience). Reactions consisted of 15 µl of venom ± inhibitors in PBS, 15 µl of assay buffer (100 mM Tris-Cl pH 8.5, 100 mM NaCl) and 15 µl of 6 mM substrate. […] The samples were pipetted in triplicate into 384-well plates (Greiner) and absorbance at 405 nm was monitored kinetically for ~30 min on an Omega FLUOstar instrument (BMG Labtech). […]
pIC50: −log10 of the molar value.
result type: pIC50

Give the measured pIC50 for N=C(N)c1ccc2cc(OC(=O)c3ccc(N=C(N)N)cc3)ccc2c1 5.97 to 6.92
